target: Human rhB7-H3 (human) (UniProt Q5ZPR3); assay: SPR (Biacore 8K/T200), purified IgG as ligand, rhB7-H3 as analyte
reported-metric: kon (M⁻¹ s⁻¹)
The response must be a number in M⁻¹ s⁻¹ with no trailing unit.

Input: Using the record for MIL33B-H3-hIgG1 (antibody, V domains shown) VH: QVQLVQSGAEVKKPGASVKVSCKASGYTFTSYVMHWVRQAPGQRLEWMGYINSYSDGTKYNEKFKGRVTITRDTSASTAYMELSSLRSEDTAVYYCARWGGLGNGAMDYWGQGTLVTVSS VL: EIVLTQSPATLSLSPGERATLSCSVSSSVNYMHWYQQKPGQAPRRLIYDTSKLASGIPARFSGSGSGTDYTLTISSLEPEDFAVYYCQQWTSNPLTFGQGTKLEIK , report its kon.
Output: 481000

Input: Using the record for MIL33B-H1-hIgG1 (antibody, V domains shown) VH: QVQLVQSGAEVKKPGASVKVSCKASGYTFTSYVMHWVRQAPGQRLEWMGYINSYSDGTKYNEKFKGRVTITSDTSASTAYMELSSLRSEDTAVYYCARWGGLGNGAMDYWGQGTLVTVSS VL: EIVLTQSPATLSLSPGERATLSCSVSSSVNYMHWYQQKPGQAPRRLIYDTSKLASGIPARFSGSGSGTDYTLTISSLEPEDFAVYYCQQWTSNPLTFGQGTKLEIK , report its kon.
Output: 597000

Input: Using the record for MIL33B chimeric antibody (full-length IgG) (antibody, V domains shown) VH: EVQLQQSGPELVKPGASVKMSCKASGYTFTSYVMHWVRQSPGQGLEGIGYINSYSDGTKYNEKFKGKATLTSDKSSSTAYMELSGLTSEDSAVYYCARWGGLGNGAMDYWGQGTSVTVSS VL: QIVLTQSPAIMSASPGEKVTMTCSVSSSVNYMHWYQQKSGTSPKRWIYDTSKLASGVPARFSASGSGTSYSLTISSMEAEDAATYYCQQWTSNPLTFGAGTKLELKR , report its kon.
Output: 482000

Input: Using the record for MIL33B-H2-hIgG1 (antibody, V domains shown) VH: QVQLVQSGAEVKKPGASVKVSCKASGYTFTSYVMHWVRQAPGQRLEWMGYINSYSDGTKYNEKFKGRATITRDTSASTAYMELSSLRSEDTAVYYCARWGGLGNGAMDYWGQGTLVTVSS VL: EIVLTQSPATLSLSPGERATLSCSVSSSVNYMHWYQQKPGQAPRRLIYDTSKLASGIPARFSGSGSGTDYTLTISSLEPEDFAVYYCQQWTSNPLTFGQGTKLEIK , report its kon.
Output: 464000
